# Tested on: Caco-2
# experimental_protocol: cell viability relative to DMSO; higher = less toxic
# study_conditions: 72 h; 10 nM
Each entry below carries its recorded cell viability.
Answer format: numeric, % implied, no suffix.

{"compound": "CN1CCN(c2ncc(-c3cc(Cl)cc(Cl)c3Cl)c(N)n2)CC1 [sipatrigine]", "parameter_measured": "cell viability", "reported": 91.1}

Turning to the following compound.
Requested read-out: cell viability. Entry: COc1ccc2[nH]cc(C3=CCNCC3)c2c1
107

----------
# Test system: Vero E6
# experimental_protocol: cell viability relative to DMSO; higher = less toxic
# study_conditions: 72 h; 100 nM
parameter_measured: cell viability (%)
Field format: number, assumed %, no unit text.

{"molecule": "O=C1CC(=O)c2c(Cl)c(Cl)c(Cl)c(Cl)c21 [TCID]", "assay_target": "Vero E6", "cell viability [%]": 97}

Short answer please: cell viability, Vero E6, entry CC(C)[C@H](N)C(=O)OCCOCn1cnc2c(=O)nc(N)[nH]c21 [valaciclovir]
86.5

Given the entry O=c1c2ccccc2nc2n1CCc1c-2[nH]c2ccccc12 [rutaecarpine] , what cell viability was observed with Vero E6?
98.3

What is its cell viability for Vero E6? Entry: CNCCn1c(=O)c2cc(OC)c(OC)cc2c2cnc3cc4c(cc3c21)OCO4
97.9

Item Cc1nc2ccccc2n1Cc1ccc(Cl)cc1 [chlormidazole] with Vero E6 - cell viability?
104

Request body: readout cell viability, system Vero E6, query O=c1n(CCCN2CCN(c3cccc(Cl)c3)CC2)nc2ccccn12 [trazodone] . Return the value.
95.6

State its cell viability on Vero E6: CC(Cc1cccc(C(F)(F)F)c1)NCCOC(=O)c1ccccc1 (configuration not stated) [benfluorex]
94.2

Please state recorded cell viability (tested on Vero E6) of C[C@H](CCC(=O)O)[C@H]1CC[C@H]2[C@@H]3C[C@H](O)[C@@H]4C[C@H](O)CC[C@]4(C)[C@H]3CC[C@]12C [Hyodeoxycholic acid (HDCA)]
95.2

Request: cell viability, test system Vero E6, entry Ic1cc(-c2ccccc2)ncn1 [4-iodo-6-phenylpyrimidine]
97.7

I'm curious: which cell viability was measured for CN(Cc1cccc(-c2ccccc2)c1)C(=O)Oc1ccc(-c2ccc(C(N)=O)cc2)cc1 [WWL-123] tested on Vero E6?
101

Lab note: need cell viability with Vero E6 for entry NC(=O)c1ccc([N+](=O)[O-])cc1Cl [aklomide] , please look it up.
95.8

Give the reported cell viability for Cc1cc2nc3c(=O)[nH]c(=O)nc-3n(C[C@H](O)[C@H](O)[C@H](O)CO)c2cc1C [riboflavin] (system: Vero E6).
96.3

# get_value(readout= cell viability, system= Vero E6) for O=C(O[C@H]1CN2CCC1CC2)N(Cc1cc(F)c(F)c(F)c1)c1cccc(F)c1 [tarafenacin]
107

Give recorded cell viability with Vero E6 for the following molecule: c1ccc(Cn2c(N3CCNCC3)nc3ccccc32)cc1 [lerisetron]
99.4

API: value(readout= cell viability, system= Vero E6, query= O=C(O)c1ccccc1NCCc1ccccc1 [tromaril] )
99

# get_value(readout= cell viability, system= Vero E6) for COc1ccc(C2C(=O)c3ccccc3C2=O)cc1 [anisindione]
94.7
